Overview of reported IC50 across a group of compounds:
- TARGET: full-length beta-Catenin (Uniprot ID P35222) (Homo sapiens, UniProt P35222)
- Construct: 10 nM full-length beta-Catenin (Uniprot ID P35222)
- Sequence (P35222 whole entry): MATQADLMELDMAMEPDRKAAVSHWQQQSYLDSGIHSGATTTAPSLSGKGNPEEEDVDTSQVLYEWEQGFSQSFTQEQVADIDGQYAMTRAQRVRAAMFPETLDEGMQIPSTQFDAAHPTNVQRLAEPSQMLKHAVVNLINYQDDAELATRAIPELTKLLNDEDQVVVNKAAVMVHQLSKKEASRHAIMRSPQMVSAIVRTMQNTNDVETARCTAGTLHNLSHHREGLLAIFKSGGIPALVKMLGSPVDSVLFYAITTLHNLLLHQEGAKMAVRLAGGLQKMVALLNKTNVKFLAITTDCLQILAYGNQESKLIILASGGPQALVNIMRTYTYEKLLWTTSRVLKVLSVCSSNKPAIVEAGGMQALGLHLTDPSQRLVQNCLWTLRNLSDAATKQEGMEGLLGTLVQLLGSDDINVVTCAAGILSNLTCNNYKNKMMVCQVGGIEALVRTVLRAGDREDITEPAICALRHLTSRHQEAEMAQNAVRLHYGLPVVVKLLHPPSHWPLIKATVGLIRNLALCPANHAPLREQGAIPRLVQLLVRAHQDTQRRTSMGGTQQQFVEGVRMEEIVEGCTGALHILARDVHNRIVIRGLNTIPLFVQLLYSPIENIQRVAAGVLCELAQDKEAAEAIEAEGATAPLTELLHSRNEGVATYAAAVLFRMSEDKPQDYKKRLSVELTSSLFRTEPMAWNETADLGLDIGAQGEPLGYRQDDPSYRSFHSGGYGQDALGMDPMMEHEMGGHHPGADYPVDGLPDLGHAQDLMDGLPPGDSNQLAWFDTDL
- MEASUREMENT PROTOCOL: Fluorescence polarization IC50 (beta-catenin / 5FAM-TCF4 10-53 competition)
- Type: binding
- MEASUREMENT CONDITIONS: fluorescence polarization; read-out: beta-Catenin FP IC50
Numeric only. Scale: µM

# COMPOUND, IC50, µM
records = [
    ("CC(=O)N1CCC[C@]12CC=CCCCC1(CCCC=CCCCCCC[C@@](C)(C(=O)N[C@@H](Cc3ccccc3)C(=O)N[C@@H](Cc3csc4ccccc34)C(=O)N[C@H](C(N)=O)[C@@H](C)O)NC(=O)[C@H](CCC(N)=O)NC(=O)[C@H](Cc3ccccc3)NC(=O)[C@H](C)NC(=O)[C@H](C)NC(=O)[C@H](CCC(=O)O)NC(=O)[C@H](CC(=O)O)NC1=O)NC(=O)[C@H](C)NC(=O)[C@H](CC(=O)O)NC2=O (stereo partly drawn) [I-507]", 0.192),
    ("CC(=O)N1CCC[C@]12CC=CCCCC1(CCCC=CCCCOC(=O)N3CC[C@@](C(=O)N[C@@H](Cc4ccccc4Cl)C(=O)N[C@@H](Cc4csc5ccccc45)C(=O)N[C@@H](C)C(N)=O)(C3)NC(=O)[C@H](CC(N)=O)NC(=O)[C@H](Cc3ccccc3)NC(=O)[C@H](C)NC(=O)[C@H](C)NC(=O)[C@H](Cc3cccc(C(=O)O)c3)NC(=O)[C@H](CC(=O)O)NC1=O)NC(=O)[C@H](CC(C)(C)C)NC(=O)[C@H](CC(=O)O)NC2=O (stereo partly drawn)", 0.011),
]

Query compound follows.
Qu. Tell me measured IC50 for CC(=O)N1CCC[C@]12CC=CCCCC1(CCCC=CCCCCCC[C@@](C)(C(=O)N[C@@H](Cc3ccccc3)C(=O)N[C@@H](Cc3csc4ccccc34)C(=O)N[C@@H](CCC(N)=O)C(N)=O)NC(=O)[C@H](CCO)NC(=O)[C@H](Cc3ccccc3)NC(=O)[C@H](C)NC(=O)[C@H](C)NC(=O)[C@H](CCC(=O)O)NC(=O)[C@H](CC(=O)O)NC1=O)NC(=O)[C@H](CCO)NC(=O)[C@H](CC(=O)O)NC2=O (stereo partly drawn) [I-1548] please.
Ans. 0.028
